Tested on: LOC_OS01G02750-cb003;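 note: purified Escherichia coli-expressed rice kinase domain construct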
Assay: thermal shift delta Tm vs DMSO control; higher = stronger stabilization (binding)
Conditions: 12.5 µM; protein concentration 2 µM

{"Compound": "CCn1nc(C2CCN(C(=O)CCO)CC2)nc1-c1cnc(N)c(-c2nnc(C(C)(C)C)o2)n1", "thermal shift delta Tm, °C": 0.51}
{"Compound": "O=c1c(O)c(-c2cc(O)c(O)c(O)c2)oc2cc(O)cc(O)c12", "thermal shift delta Tm, °C": 26.2}
{"Compound": "CO[C@H]1C[C@@H]2CC[C@@H](C)[C@@](O)(O2)C(=O)C(=O)N2CCCC[C@H]2C(=O)O[C@H]([C@H](C)C[C@@H]2CC[C@@H](O)[C@H](OC)C2)CC(=O)[C@H](C)/C=C(\\C)[C@@H](O)[C@@H](OC)C(=O)[C@H](C)C[C@H](C)/C=C/C=C/C=C/1C [Rapamycin (Sirolimus)]", "thermal shift delta Tm, °C": 0.22}
{"Compound": "Oc1cccc(-c2nc(N3CCOCC3)c3oc4ncccc4c3n2)c1", "thermal shift delta Tm, °C": 0.09}
{"Compound": "CC(C)n1nc(-c2ccc3oc(N)nc3c2)c2c(N)ncnc21", "thermal shift delta Tm, °C": 1.42}
{"Compound": "Cc1cc(CS(=O)(=O)c2ccccc2)cc(OCc2ccc(CN3CCC[C@@H]3CO)cc2)c1", "thermal shift delta Tm, °C": 1.37}
{"Compound": "C[C@H]1CNC(=O)c2cnn3ccc(nc23)N[C@H](C)c2cc(F)ccc2O1", "thermal shift delta Tm, °C": 4.66}
{"Compound": "COc1cc2ncnc(Nc3ccc(Oc4ccccc4)cc3C)c2cc1OC", "thermal shift delta Tm, °C": 0.9}
{"Compound": "COc1ccc(-c2cc3c(C)nc(N)nc3n([C@H]3CC[C@H](OCCO)CC3)c2=O)cn1", "thermal shift delta Tm, °C": 0.7}
{"Compound": "CN1CCN(c2ccc(Nc3cc(-c4cccc(-n5ccc6cc(C7CC7)cc(F)c6c5=O)c4CO)cn(C)c3=O)nc2)CC1", "thermal shift delta Tm, °C": -0.04}
{"Compound": "COc1ccc(COc2cc3oc(=O)c4cc(C(C)O)ccc4c3cc2OC)cc1 (configuration not stated)", "thermal shift delta Tm, °C": 0.16}
{"Compound": "COc1cc(N2CCC(N3CCN(C)CC3)CC2)ccc1Nc1ncnc(Nc2ccccc2S(=O)(=O)C(C)C)n1", "thermal shift delta Tm, °C": 1.86}
{"Compound": "CNc1nc(Nc2cn(C(C)(C)C#N)nc2C)ncc1C(F)(F)F", "thermal shift delta Tm, °C": 1.65}
{"Compound": "CO[C@@H](C(=O)N1Cc2[nH]nc(NC(=O)c3ccc(N4CCN(C)CC4)cc3)c2C1)c1ccccc1", "thermal shift delta Tm, °C": 1.69}
{"Compound": "CNC(=O)c1cc(Oc2ccc3nc(N[C@@H]4CCCC[C@H]4O)sc3c2)ccn1", "thermal shift delta Tm, °C": 2.05}
{"Compound": "Cn1c(=O)c(F)c(Nc2ccc(I)cc2F)c2c(=O)n(C[C@@H](O)CO)cnc21", "thermal shift delta Tm, °C": -0.22}
{"Compound": "Cc1cc(C)c(/C=C2\\C(=O)Nc3ccccc32)[nH]1 [Semaxanib (SU5416)]", "thermal shift delta Tm, °C": 1.81}
{"Compound": "O=C(c1ccc(/C=C/c2n[nH]c3ccccc23)cc1)N1CCNCC1", "thermal shift delta Tm, °C": 3.06}
{"Compound": "CNC(=O)c1cc(Oc2ccc(NC(=O)Nc3ccc(Cl)c(C(F)(F)F)c3)c(F)c2)ccn1", "thermal shift delta Tm, °C": 0.82}
{"Compound": "CCn1c(C(=O)N(C2CC2)C2CC2)cc2c3c(ncn3C)c(Nc3cc(C)n(C)n3)nc21", "thermal shift delta Tm, °C": 1.05}
{"Compound": "C=CC(=O)Nc1cccc(C)c1Nc1ncc2cc(-c3c(Cl)c(OC)cc(OC)c3Cl)ccc2n1", "thermal shift delta Tm, °C": 1.61}
{"Compound": "Cc1nc(N)sc1-c1ccnc(Nc2ccc(N3CCOCC3)cc2)n1", "thermal shift delta Tm, °C": 10.4}
{"Compound": "CCc1cccc(CC)c1NC(=O)N1Cc2[nH]nc(NC(=O)c3ccc(N4CCN(C)CC4)cc3)c2C1", "thermal shift delta Tm, °C": 0.54}
{"Compound": "C1=N/C2=N/c3ccc(OCCN4CCCC4)c(c3)COC/C=C/COCc3cccc(c3)C(=C1)N2 [Pacritinib (SB1518)]", "thermal shift delta Tm, °C": 2.89}
{"Compound": "CC(C)NC(=O)COc1cccc(-c2nc(Nc3ccc4[nH]ncc4c3)c3ccccc3n2)c1", "thermal shift delta Tm, °C": 0.09}
{"Compound": "CS(=O)(=O)c1ccc(-c2cnc(N)c(C(=O)Nc3ccccc3)n2)cc1", "thermal shift delta Tm, °C": 0.51}
{"Compound": "CNC(=O)c1nn(C)c2c1C(C)(C)Cc1cnc(Nc3ccc(N4CCN(C)CC4)cc3)nc1-2", "thermal shift delta Tm, °C": 4.29}

Provenance of the data: the supplement of paper PMC9694430
